Tested on: RXF 393 renal
experiment: NCI tumour cell line growth inhibition, 48 h
We begin with a simple list: items and their reported log10(TGI).
measured_endpoint: log10(TGI) (log10 of the value in µM)

compound: Cn1c(=O)nc2n(-c3ccc(Cl)cc3)c3cc(Cl)ccc3nc-2c1=O
measured_endpoint: log10(TGI)
measured_value: 0.97
--
compound: C=CC(=O)N1C[C@@H]2CCOc3c(Cl)c(-c4c(O)cccc4F)c(F)c4ncnc(c34)N2C[C@H]1C
measured_endpoint: log10(TGI)
measured_value: 1.18
--
compound: Cc1ccc2cccc(OC(=O)Nc3cccc(C(F)(F)F)c3)c2n1
measured_endpoint: log10(TGI)
measured_value: 1.34
--
compound: CN(C)CCNC(=O)c1cc(Cl)cc2cc3ccccc3nc12
measured_endpoint: log10(TGI)
measured_value: 0.45
--
compound: CC(=O)O[C@H]1CC[C@H]2[C@@H]3CCC4=CC(=O)C=C[C@]4(O)[C@H]3CC[C@]12C
measured_endpoint: log10(TGI)
measured_value: 1.88
--
compound: O=C(c1ccc(C(F)(F)F)c(Cl)c1)N(Cc1ccc(Cl)cc1)c1ccc(-c2cc(C(F)(F)F)[nH]n2)c(O)c1
measured_endpoint: log10(TGI)
measured_value: 0.31
--
compound: CC[C@@]1(O)C(=O)OCc2c1cc1n(c2=O)Cc2cc3ccccc3nc2-1
measured_endpoint: log10(TGI)
measured_value: -0.90
--
compound: C/C=C/C=C\C=C/C(O)C(C)C(CCC(C)C1OC(=O)C=CC1C)OP(=O)(O)O (configuration not stated)
measured_endpoint: log10(TGI)
measured_value: 0.14

----------
Test system: SF-268 CNS
experiment: NCI tumour cell line growth inhibition, 48 h
We begin with a simple list: items and their reported TGI.

structure_as_smiles: COC(=O)c1cc(=O)n(-c2ccc3nn(C)nc3c2)cc1C(=O)OC
TGI: > 100 µM
//
structure_as_smiles: C=C1[C@H](OCC(C)C)[C@@H](O)[C@@H](OC(=O)c2cccnc2)C(C)(C)/C=C/[C@H](C)[C@H](OC(C)=O)[C@@]2(O)C[C@@](C)(OC(C)=O)[C@H](OC(=O)c3ccccc3)[C@@H]2[C@H]1OC(C)=O
TGI: > 3.24 µM
//
structure_as_smiles: O=[N+]([O-])c1cccc(-c2ncc3c(n2)-c2ccccc2C3)c1
TGI: > 100 µM
//
structure_as_smiles: N#Cc1c(NC(=O)c2ccc(F)cc2)sc2c1CCCC2
TGI: > 25 µM

----------
Tested on: CCRF-CEM leukemia
experiment: NCI tumour cell line growth inhibition, 48 h
measured_endpoint: TGI

compound: CN(Cc1cn(O)c2nc(=N)nc(N)c-2n1)c1ccc(C(=O)NC23CC4CC(CC(C4)C2)C3)cc1
study_target: CCRF-CEM leukemia
measured_value: > 100 µM
//
compound: Oc1ccc2ccccc2c1N=Nc1cc(Cl)ccc1Cl
study_target: CCRF-CEM leukemia
measured_value: > 50 µM
//
compound: CCC1C(C(=O)Nc2ccccc2C)=C(C)NC(C)=C1c1ccccc1C (centres undefined)
study_target: CCRF-CEM leukemia
measured_value: > 100 µM
//
compound: N#CC(C#N)=C/C=C/c1c(Cl)cccc1Cl
study_target: CCRF-CEM leukemia
measured_value: > 10 µM

----------
System: LOX IMVI melanoma
experiment: NCI tumour cell line growth inhibition, 48 h
Where a SMILES comes first, the peptide text is derived from it. [ ]: non-standard residue; d: D form. The star is where a group is joined. ξ: configuration not given here. ξF = NC(Cc1ccccc1)C(=O)O; Cbz = O=C(OCc1ccccc1)*; Aib = CC(C)(N)C(=O)O

molecule: CC(C)(C)OC(=O)N1C(OP(=O)(Oc2ccccc2)Oc2ccccc2)=CSc2ccccc21
TGI: > 100 µM
--
molecule: C#Cc1cccc(Nc2ncnc3ccc(OCCCCNCCS(C)(=O)=O)cc23)c1
TGI: 11.1 µM
--
molecule: Oc1[nH]c(=S)[nH]c1/C=C1/C(c2ccccc2)=Nc2ccccc21
TGI: 24.3 µM
--
molecule: C/C=C(/C)C(=O)O[C@H]1[C@H]2[C@@H]([C@@H](OC(C)=O)[C@H](C)C(=O)[C@@]34C[C@@H](C)C(=O)[C@]3(/C=C(\C)[C@H]1OC(C)=O)O4)C2(C)C
TGI: 6.27 µM
--
molecule: Cc1[nH]c(=O)[nH]c(=O)c1/C=C/C(=O)NC(CO)CS(=O)CS(C)=O (stereo not drawn)
TGI: 86.9 µM
--
molecule: NC(CCOCCP(=O)(O)CCC1C=CC=CC1)C(=O)O (stereo not drawn)
TGI: > 100 µM
--
molecule: O=C(C=P(c1ccccc1)(c1ccccc1)c1ccccc1)CCl
TGI: 1.04 µM
--
molecule: C=C1C(=O)O[C@@H]2/C=C(\C)CC/C=C(\C)CC[C@@]12O
TGI: 5.23 µM
--
molecule: COc1cc(/C=N/c2nc3cc4sc(/N=C/c5cc(OC)c(OC)c(OC)c5)nc4cc3s2)cc(OC)c1OC
TGI: > 100 µM
--
molecule: O=C(NC(Cc1ccc(Br)cc1)C(=O)O)c1ccc(I)cc1 (stereo not drawn)
TGI: > 100 µM
--
molecule: Oc1c(Cl)cc(Cl)cc1/C=N/Nc1nnc(N/N=C/c2cc(Cl)cc(Cl)c2O)c2ccccc12
TGI: 0.586 µM
--
molecule: O=C1C2CCCCC2C(=O)N1n1c(-c2ccccc2)n[nH]c1=O (stereo not drawn)
TGI: > 100 µM
--
molecule: Oc1ccc2c3c1OC1c4[nH]ncc4C[C@H]4[C@@H](C2)N(CC2CC2)CC[C@]314 (stereo partly drawn)
TGI: > 100 µM
--
molecule: O=C(c1ccccc1Cl)n1oc2ccccc2c1=O
TGI: > 100 µM
--
molecule: CC(C)(C)c1cc(/C=N/NC(=O)c2ccccc2NC(=O)c2cccs2)c(O)c(C(C)(C)C)c1
TGI: > 100 µM
--
molecule: CCCCN1C(=O)c2c(Br)sc(Br)c2C1=O
TGI: > 100 µM
--
molecule: COc1ccc2[nH]c3c(c2c1)CC(=O)N1CCCC(CC3O)C1 (stereo not drawn)
TGI: > 100 µM
--
molecule: N#Cc1c(NC(=O)c2ccc(F)cc2)sc2c1CCCC2
TGI: > 25 µM
--
molecule: CCOC(=O)CNC(=O)C(Cc1ccccc1)NC(=O)C(C)(C)NC(=O)OCc1ccccc1 (stereo not drawn) (Cbz-[Aib]-[ξF]-Gly-OEt)
TGI: > 100 µM
--
molecule: NS(=O)(=O)c1ccc(Nc2c3ccccc3nc3c(C(=O)N4CCN(CCO)CC4)cccc23)cc1
TGI: > 100 µM
--
molecule: CC(C)(Oc1ccc(Cl)cc1)C(=O)N(C(=O)N1CCCCC1)c1ccccc1
TGI: 26.6 µM
--
molecule: O=C(CSCC(=O)N/N=C/c1ccccc1)N/N=C\c1ccccc1
TGI: > 100 µM
--
molecule: CCCC1CC(=O)NC(=O)C1C(=O)OC(C)(C)C (stereo not drawn)
TGI: > 100 µM
--
molecule: COC(=O)c1ccccc1CC1Cc2cc3c(cc2C1=O)CCC3 (stereo not drawn)
TGI: 31.1 µM
--
molecule: COc1ccc2c3c1OC1C(OC)(OC)C=C[C@@]4(Br)[C@@H](C2)N(CC2CC2)CC[C@]314 (stereo partly drawn)
TGI: > 100 µM
--
molecule: COc1ccc(-c2nc3c(nc2-c2ccc(OC)cc2)C(N)=NS(=O)(=O)N3)cc1
TGI: > 100 µM
--
molecule: CC(=O)O[C@H]1CCN2C(=O)C=CC(OCc3ccccc3)C12 (stereo partly drawn)
TGI: > 100 µM
--
molecule: O=C(O)c1ccccc1CC1Cc2cc3c(cc2C1)CCC3
TGI: > 100 µM

----------
We begin with a simple list: items and their reported TGI.
System: ACHN renal
experiment: NCI tumour cell line growth inhibition, 48 h

compound: CN(Cc1cn(O)c2nc(=N)nc(N)c-2n1)c1ccc(C(=O)NC23CC4CC(CC(C4)C2)C3)cc1
bound_operator: >
TGI / µM: 100

compound: CC(C)(Oc1ccc(Cl)cc1)C(=O)N(C(=O)N1CCCCC1)c1ccccc1
bound_operator: =
TGI / µM: 28.1

compound: Cc1cc2c(c(O)c1-c1c(C)cc(O)c3c1C(=O)C=CC3=O)C(=O)C=CC2=O
bound_operator: =
TGI / µM: 1.44

compound: C=C1[C@H](OCC(C)C)[C@@H](O)[C@@H](OC(=O)c2cccnc2)C(C)(C)/C=C/[C@H](C)[C@H](OC(C)=O)[C@@]2(O)C[C@@](C)(OC(C)=O)[C@H](OC(=O)c3ccccc3)[C@@H]2[C@H]1OC(C)=O
bound_operator: =
TGI / µM: 2.87

compound: COc1ccc(C(=O)c2c3cc(OC)c(OC)c(OC)c3cc[n+]2C)cc1
bound_operator: >
TGI / µM: 100

compound: CCN(CC)CC[n+]1ccc2c(C)c3[nH]c4ccc(O)cc4c3c(C)c2c1
bound_operator: =
TGI / µM: 16.5

compound: Cn1c(=O)nc2n(-c3ccc(Cl)cc3)c3cc(Cl)ccc3nc-2c1=O
bound_operator: =
TGI / µM: 25.5

compound: C[C@@H]1C(=O)O[C@H]1[C@H](O)CO
bound_operator: >
TGI / µM: 100

compound: Cn1cc(C2=C(c3cn(-c4ccccc4)c4ccccc34)C(=O)NC2=O)c2ccccc21
bound_operator: >
TGI / µM: 25

compound: CCOC(=O)Cc1nnc2n(-c3ccccc3)c(=O)c3ccccc3n12
bound_operator: >
TGI / µM: 100

compound: COC1=C(C)C(=O)c2c(c(CCCl)c3n2CCC3OC(C)=O)C1=O (configuration not stated)
bound_operator: =
TGI / µM: 0.417

compound: O=c1cc(NNCc2ccccc2)[nH]c(=O)[nH]1
bound_operator: >
TGI / µM: 100

compound: Cc1[nH]c2ccccc2c1CC/C(=N\Nc1ccccc1)c1ccccc1
bound_operator: >
TGI / µM: 100

compound: CC(C)(C)C1CCC2c3c([nH]c4ccccc34)C3C(=O)N(c4ccccc4[N+](=O)[O-])C(=O)C3C2C1 (configuration not stated)
bound_operator: =
TGI / µM: 61.3

compound: COc1ccc(/C=C2\COc3ccc(O)c(O)c3C2=O)c(OC)c1OC
bound_operator: =
TGI / µM: 3.96

compound: Cc1c2c(nc3ccccc13)C(=O)c1cccnc1C2=O
bound_operator: >
TGI / µM: 100

compound: OCC(O)CNc1ncnc2ccccc12 (configuration not stated)
bound_operator: >
TGI / µM: 100

compound: C=C(C)[C@@H]1CCC2=C[C@H](C/C(C)=C\C3=CC(C)=C(O3)[C@H]1O)OC2=O
bound_operator: >
TGI / µM: 100

compound: CC(c1ccc2c(c1)CCC1C2CC2OC23CC=CC(=O)[C@]13C)C1C[C@]2(C)O[C@]2(C)[C@H](O)O1 (some centres not stated)
bound_operator: >
TGI / µM: 100

compound: CCC1(CC)C(=O)N(C(=O)c2ccccc2)N(C(=O)c2ccc(Cl)cc2)C1=O
bound_operator: >
TGI / µM: 75

compound: NC(=S)N/N=C1\c2ccccc2-c2c(F)c(F)c(F)c(F)c21
bound_operator: =
TGI / µM: 4.38

compound: N#CC1=C2SCCN2C(=O)C(C#N)C12CCCCC2 (configuration not stated)
bound_operator: >
TGI / µM: 100

compound: O=C(Oc1c(Cl)cc(C2(c3cc(Cl)c(OC(=O)c4ccccc4)c(Cl)c3)CCCCC2)cc1Cl)c1ccccc1
bound_operator: =
TGI / µM: 17.6

compound: Cc1ccc(/C=C(\NC(=O)c2ccccc2)c2nc3ccccc3[nH]2)cc1
bound_operator: >
TGI / µM: 100

compound: CC(C)(c1ccccc1)c1cc(O)c(C(C)(C)c2ccccc2)cc1O
bound_operator: =
TGI / µM: 12.2

compound: CC1C2CC(CC2(C)O)C1(C)C (configuration not stated)
bound_operator: >
TGI / µM: 100

compound: Cc1cc(=O)oc2c(CNC(CO)C(=O)O)c(O)ccc12 (configuration not stated)
bound_operator: >
TGI / µM: 100
